Attribute: activity at 100 µM
Test system: Aβ1-42
test name: Aβ1-42 content in conditioned medium of primary cortico-hippocampal neuron cultures from Tg2576 mice (ELISA; primary and secondary dose-response screening)
Assay type: cell-based, mouse
recorded conditions: Mus musculus, Neuron, 24 h, primary screening, drug 100 μM, Tg2576 neuron cultures; table sorted by Aβ1-42; read-out: Ab1-42 (% of ctl)
Where a name gives a salt, the structure may show the parent alone.
Could you give me the number in %? Just the number is fine.

CCOC(=O)C1=C[C@]2(CC)CCCN3CCc4c(n1c1ccccc41)[C@@H]32 [Vinpocetine] :: 105
CCC(=O)O[C@@H](O[P@](=O)(CCCCc1ccccc1)CC(=O)N1C[C@H](C2CCCCC2)C[C@H]1C(=O)O)C(C)C [Fosinopril Sodium] :: 95
CCCNCC(O)COc1ccccc1C(=O)CCc1ccccc1 (centres unmarked) [Propafenone Hydrochloride] :: 56.4
CCC[C@H](N[C@@H](C)C(=O)N1[C@H](C(=O)O)C[C@@H]2CCCC[C@@H]21)C(=O)OCC [Perindopril Erbumine] :: 88.8
Nc1cc(N2CCCCC2)nc(N)[n+]1[O-] [Minoxidil] :: 98.9
CC(=O)CC(c1ccccc1)c1c(O)c2ccccc2oc1=O (centres unmarked) [Warfarin] :: 107
CC(C)NCC(O)c1ccc2ccccc2c1 (centres unmarked) [Pronetalol Hydrochloride] :: 94.6

Field request: activity at 100 µM | item: CC(C)(C)NC[C@H](O)COc1nsnc1N1CCOCC1 [Timolol Maleate] 104

====

System: primary cortico-hippocampal neuron cultures
test name: MTT in primary screening
recorded conditions: primary screening; table sorted by Aβ1-42
Counter-ions that a name gives are not always drawn.
measured metric: MTT (% of ctl)

Examples from the recorded data:
C[C@]12CCC(=O)C=C1C=C[C@@H]1[C@@H]2CC[C@@]2(C)[C@H]1CC[C@@]2(O)CCC(=O)O [Canrenoic Acid, Potassium Salt] :: 102.1 % of ctl
COC(=O)[C@H]1[C@H]2C[C@@H]3c4[nH]c5cc(OC)ccc5c4CCN3C[C@H]2C[C@@H](OC(=O)c2cc(OC)c(OC)c(OC)c2)[C@@H]1OC :: 87.2 % of ctl
N=C(N)NC(=O)c1nc(Cl)c(N)nc1N [Amiloride Hydrochloride] :: 80.8 % of ctl
NC[C@H]1CC[C@H](C(=O)O)CC1 :: 96.8 % of ctl

Need MTT (% of ctl), item "CC(C)(Sc1cc(C(C)(C)C)c(O)c(C(C)(C)C)c1)Sc1cc(C(C)(C)C)c(O)c(C(C)(C)C)c1" 94.8 % of ctl

Which value of MTT (% of ctl) has been reported for CCCC(=O)Nc1ccc(OCC(O)CNC(C)C)c(C(C)=O)c1 (stereo not shown) [Acebutolol Hydrochloride] in the records? 99.4 % of ctl

Fill in the blank: the reported MTT (% of ctl) of "CCOC(=O)[C@H](CCc1ccccc1)N[C@@H](C)C(=O)N1[C@H](C(=O)O)C[C@H]2CCCC[C@@H]21" is ____. 91.5 % of ctl

====

Test system: primary cortico-hippocampal neuron cultures
test name: MTT in primary screening
recorded conditions: Primary Screening; table sorted by Aβ1-40
measured metric: MTT (% of ctl)

CC(=O)CCCCn1c(=O)c2c(ncn2C)n(C)c1=O :: 91.1 % of ctl
NS(=O)(=O)c1cc2c(cc1Cl)N=C(CSCc1ccccc1)NS2(=O)=O [Benzthiazide] :: 98.5 % of ctl
CCOc1ccccc1OCCN[C@H](C)Cc1ccc(OC)c(S(N)(=O)=O)c1.Cl [Tamsulosin Hydrchloride] :: 96.1 % of ctl
CC[C@]12CCCN3CCc4c(n(c5ccccc45)[C@@](O)(C(=O)OC)C1)[C@@H]32 :: 98.5 % of ctl
Nc1cc(N2CCCCC2)nc(N)[n+]1[O-] :: 98.5 % of ctl

Give the reported MTT (% of ctl) for COc1cc([S+](C)[O-])ccc1-c1nc2ncccc2[nH]1 (centres unmarked) (system: primary cortico-hippocampal neuron cultures). 115.0 % of ctl

Record CCOC(=O)C1=C(COCCN)NC(C)=C(C(=O)OC)C1c1ccccc1Cl (centres unmarked) [Amlodipine Besylate] : what is its MTT (% of ctl) with primary cortico-hippocampal neuron cultures? 13.3 % of ctl

Lab note: need MTT (% of ctl) with primary cortico-hippocampal neuron cultures for entry "CCCc1nc(C(C)(C)O)c(C(=O)OCc2oc(=O)oc2C)n1Cc1ccc(-c2ccccc2-c2nnn[nH]2)cc1" , please look it up. 90.7 % of ctl
